target: Cytochrome P450 1A2 (Homo sapiens); test: Inhibition of human recombinant CYP1A2 after 15 mins by 7-ethoxyresorufin-O-deethylation-based spectrofluorimetry
Sequence (P05177 whole entry): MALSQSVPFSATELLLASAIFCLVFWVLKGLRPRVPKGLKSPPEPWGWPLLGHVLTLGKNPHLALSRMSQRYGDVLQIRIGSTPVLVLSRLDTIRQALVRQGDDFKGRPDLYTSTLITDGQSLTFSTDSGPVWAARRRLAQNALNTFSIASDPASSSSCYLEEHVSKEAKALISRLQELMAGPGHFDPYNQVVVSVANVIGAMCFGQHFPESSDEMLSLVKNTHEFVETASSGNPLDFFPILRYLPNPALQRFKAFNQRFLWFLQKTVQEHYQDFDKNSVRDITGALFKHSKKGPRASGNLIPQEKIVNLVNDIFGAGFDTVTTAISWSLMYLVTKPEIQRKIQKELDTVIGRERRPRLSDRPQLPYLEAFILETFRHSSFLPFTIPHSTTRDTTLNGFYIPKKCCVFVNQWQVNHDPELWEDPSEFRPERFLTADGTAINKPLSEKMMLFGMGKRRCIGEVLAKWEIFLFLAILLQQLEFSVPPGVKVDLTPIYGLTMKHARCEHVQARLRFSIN
Measured quantity: IC50 (µM)
The reply should contain only the number, in µM.

Asked: Supply recorded IC50 for COc1ccccc1/C=C/c1ccc(OC)c(OC)c1 here.
Given back: 3.32

Asked: Supply recorded IC50 for COc1ccc(/C=C/c2c(OC)cccc2OC)cc1OC here.
Given back: 2.31

Asked: Supply recorded IC50 for COc1ccc(/C=C/c2ccccc2)cc1OC here.
Given back: 6.04

Asked: Supply recorded IC50 for COc1ccc(/C=C/c2cccc(OC)c2OC)cc1OC here.
Given back: 16

---

molecular target: Cytochrome P450 1B1 (Homo sapiens, UniProt Q16678); test: Inhibition of human recombinant CYP1B1 after 15 mins by 7-ethoxyresorufin-O-deethylation-based spectrofluorimetry
Sequence (Q16678 whole entry): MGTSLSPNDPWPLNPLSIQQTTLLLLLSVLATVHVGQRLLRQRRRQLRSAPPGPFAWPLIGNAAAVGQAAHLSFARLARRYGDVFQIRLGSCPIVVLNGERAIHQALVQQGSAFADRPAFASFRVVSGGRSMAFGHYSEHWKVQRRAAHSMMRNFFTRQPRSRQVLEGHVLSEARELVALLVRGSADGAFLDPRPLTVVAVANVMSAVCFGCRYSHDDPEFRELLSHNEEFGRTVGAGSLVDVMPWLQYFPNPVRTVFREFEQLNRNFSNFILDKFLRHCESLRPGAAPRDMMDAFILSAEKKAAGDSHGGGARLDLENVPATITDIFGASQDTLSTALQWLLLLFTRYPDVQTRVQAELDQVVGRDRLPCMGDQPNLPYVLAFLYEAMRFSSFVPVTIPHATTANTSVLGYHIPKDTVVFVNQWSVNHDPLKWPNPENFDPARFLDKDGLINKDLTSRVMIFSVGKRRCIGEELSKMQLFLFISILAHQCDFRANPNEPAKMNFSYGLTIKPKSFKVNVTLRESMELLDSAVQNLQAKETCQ
Assignment: determine reported log10(IC50) for the given compounds.
Could you please treat all values as log10 of IC50 in nM?

Asked: Supply recorded log10(IC50) for COc1ccc(/C=C/c2ccc(OC)c(OC)c2OC)cc1OC here.
Given back: 3.62

Asked: Supply recorded log10(IC50) for COc1cc(OC)c(OC)cc1/C=C/c1ccc(OC)c(OC)c1 here.
Given back: 3.65

Asked: Supply recorded log10(IC50) for COc1ccc(/C=C/c2ccccc2)cc1OC here.
Given back: 2.48

Asked: Supply recorded log10(IC50) for COc1cc(OC)c(/C=C/c2ccc(OC)c(OC)c2)c(OC)c1 here.
Given back: 2.48

Asked: Supply recorded log10(IC50) for COc1cc(O)cc(/C=C/c2ccc(O)cc2)c1 here.
Given back: 3.32

Asked: Supply recorded log10(IC50) for COc1ccc(/C=C/c2c(OC)cccc2OC)cc1OC here.
Given back: 2.49

Asked: Supply recorded log10(IC50) for COc1ccccc1/C=C/c1ccc(OC)c(OC)c1 here.
Given back: 0.60

Asked: Supply recorded log10(IC50) for COc1ccc(/C=C/c2cccc(OC)c2OC)cc1OC here.
Given back: 2.57

Asked: Supply recorded log10(IC50) for COc1ccc(OC)c(/C=C/c2ccc(OC)c(OC)c2)c1 here.
Given back: 2.79

Asked: Supply recorded log10(IC50) for COc1ccc(/C=C/c2cc(O)cc(O)c2)cc1 here.
Given back: 2.90

Asked: Supply recorded log10(IC50) for COc1ccc(/C=C/c2ccc(OC)c(OC)c2)c(OC)c1 here.
Given back: 2.32

Asked: Supply recorded log10(IC50) for COc1cc(/C=C/c2ccc(O)cc2)cc(OC)c1 here.
Given back: 3.15

---

organism: Homo sapiens; test: Selectivity ratio of IC50 for human recombinant CYP1A2 to IC50 for human recombinant CYP1B1
Measured quantity: Ratio IC50
Reply briefly: the number, and no unit.

Asked: Supply recorded Ratio IC50 for COc1ccc(/C=C/c2ccccc2)cc1OC here.
Given back: 20.1

Asked: Supply recorded Ratio IC50 for COc1ccc(/C=C/c2c(OC)cccc2OC)cc1OC here.
Given back: 7.5

Asked: Supply recorded Ratio IC50 for COc1ccc(/C=C/c2cccc(OC)c2OC)cc1OC here.
Given back: 43.3

Asked: Supply recorded Ratio IC50 for COc1ccccc1/C=C/c1ccc(OC)c(OC)c1 here.
Given back: 830

---

Assignment: determine reported Ratio IC50 for the given compounds.
organism: Homo sapiens; test: Selectivity ratio of IC50 for human recombinant CYP1A1 to IC50 for human recombinant CYP1B1
Reply briefly: the number, and no unit.

Asked: Supply recorded Ratio IC50 for COc1ccc(OC)c(/C=C/c2ccc(OC)c(OC)c2)c1 here.
Given back: 0.8

Asked: Supply recorded Ratio IC50 for COc1ccc(/C=C/c2ccc(OC)c(OC)c2)c(OC)c1 here.
Given back: 2.4

Asked: Supply recorded Ratio IC50 for COc1ccc(/C=C/c2cccc(OC)c2OC)cc1OC here.
Given back: 1.2

Asked: Supply recorded Ratio IC50 for COc1cc(OC)c(/C=C/c2ccc(OC)c(OC)c2)c(OC)c1 here.
Given back: 0.9

Asked: Supply recorded Ratio IC50 for COc1ccc(/C=C/c2ccccc2)cc1OC here.
Given back: 1.5

Asked: Supply recorded Ratio IC50 for COc1ccccc1/C=C/c1ccc(OC)c(OC)c1 here.
Given back: 90

Asked: Supply recorded Ratio IC50 for COc1ccc(/C=C/c2c(OC)cccc2OC)cc1OC here.
Given back: 0.74

Asked: Supply recorded Ratio IC50 for COc1cc(OC)c(OC)cc1/C=C/c1ccc(OC)c(OC)c1 here.
Given back: 0.4

Asked: Supply recorded Ratio IC50 for COc1ccc(/C=C/c2ccc(OC)c(OC)c2OC)cc1OC here.
Given back: 1.2

---

Biological target: Cytochrome P450 1A1 (Homo sapiens)
Sequence (P04798 whole entry): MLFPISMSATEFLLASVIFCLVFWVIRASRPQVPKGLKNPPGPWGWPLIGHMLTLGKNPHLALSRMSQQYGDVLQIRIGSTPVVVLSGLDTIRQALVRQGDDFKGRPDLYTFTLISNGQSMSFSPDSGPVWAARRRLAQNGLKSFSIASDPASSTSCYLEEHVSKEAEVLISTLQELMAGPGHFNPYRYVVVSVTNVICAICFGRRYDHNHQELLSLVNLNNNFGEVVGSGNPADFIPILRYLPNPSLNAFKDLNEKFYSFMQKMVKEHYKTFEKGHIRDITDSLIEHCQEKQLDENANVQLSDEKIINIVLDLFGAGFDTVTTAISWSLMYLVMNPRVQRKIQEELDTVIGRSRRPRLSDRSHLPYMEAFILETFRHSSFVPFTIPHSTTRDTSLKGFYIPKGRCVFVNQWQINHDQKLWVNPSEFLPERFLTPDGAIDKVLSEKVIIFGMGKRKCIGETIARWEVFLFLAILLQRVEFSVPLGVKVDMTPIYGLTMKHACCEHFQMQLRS
Test: Inhibition of human recombinant CYP1A1 after 15 mins by 7-ethoxyresorufin-O-deethylation-based spectrofluorimetry
Assignment: determine reported IC50 for the given compounds.
The reply should contain only the number, in nM.

Asked: Under Cytochrome P450 1A1 (Homo sapiens): report IC50 of COc1ccccc1/C=C/c1ccc(OC)c(OC)c1 .
Given back: 360

Asked: Under Cytochrome P450 1A1 (Homo sapiens): report IC50 of COc1ccc(/C=C/c2ccc(OC)c(OC)c2)c(OC)c1 .
Given back: 510

Asked: Under Cytochrome P450 1A1 (Homo sapiens): report IC50 of COc1ccc(/C=C/c2c(OC)cccc2OC)cc1OC .
Given back: 230

Asked: Under Cytochrome P450 1A1 (Homo sapiens): report IC50 of COc1ccc(/C=C/c2ccccc2)cc1OC .
Given back: 440

Asked: Under Cytochrome P450 1A1 (Homo sapiens): report IC50 of COc1cc(OC)c(OC)cc1/C=C/c1ccc(OC)c(OC)c1 .
Given back: 1780

Asked: Under Cytochrome P450 1A1 (Homo sapiens): report IC50 of COc1ccc(/C=C/c2ccc(OC)c(OC)c2OC)cc1OC .
Given back: 5180

Asked: Under Cytochrome P450 1A1 (Homo sapiens): report IC50 of COc1ccc(OC)c(/C=C/c2ccc(OC)c(OC)c2)c1 .
Given back: 500

Asked: Under Cytochrome P450 1A1 (Homo sapiens): report IC50 of COc1cc(OC)c(/C=C/c2ccc(OC)c(OC)c2)c(OC)c1 .
Given back: 270

Asked: Under Cytochrome P450 1A1 (Homo sapiens): report IC50 of COc1ccc(/C=C/c2cccc(OC)c2OC)cc1OC .
Given back: 450

---

Assignment: determine reported Ratio IC50 for the given compounds.
species on record: Homo sapiens; experiment: Selectivity ratio of IC50 for human recombinant CYP1A2 to IC50 for human recombinant CYP1B1

Asked: Supply recorded Ratio IC50 for COc1ccc(OC)c(/C=C/c2ccc(OC)c(OC)c2)c1 here.
Given back: > 160

Asked: Supply recorded Ratio IC50 for COc1ccc(/C=C/c2ccc(OC)c(OC)c2)c(OC)c1 here.
Given back: > 480

Asked: Supply recorded Ratio IC50 for COc1cc(OC)c(/C=C/c2ccc(OC)c(OC)c2)c(OC)c1 here.
Given back: > 333

Asked: Supply recorded Ratio IC50 for COc1cc(OC)c(OC)cc1/C=C/c1ccc(OC)c(OC)c1 here.
Given back: > 22.5

Asked: Supply recorded Ratio IC50 for COc1ccc(/C=C/c2ccc(OC)c(OC)c2OC)cc1OC here.
Given back: > 24
